# Assayed System: T1, soluble human GPNMB (recombinant extracellular domain) (human, UniProt Q14956 23-498)
# T1 construct: also called huGPNMB; recombinant human GPNMB extracellular domain; not shown: C-terminal polyhistidine or Avi-His tag
# T1 sequence: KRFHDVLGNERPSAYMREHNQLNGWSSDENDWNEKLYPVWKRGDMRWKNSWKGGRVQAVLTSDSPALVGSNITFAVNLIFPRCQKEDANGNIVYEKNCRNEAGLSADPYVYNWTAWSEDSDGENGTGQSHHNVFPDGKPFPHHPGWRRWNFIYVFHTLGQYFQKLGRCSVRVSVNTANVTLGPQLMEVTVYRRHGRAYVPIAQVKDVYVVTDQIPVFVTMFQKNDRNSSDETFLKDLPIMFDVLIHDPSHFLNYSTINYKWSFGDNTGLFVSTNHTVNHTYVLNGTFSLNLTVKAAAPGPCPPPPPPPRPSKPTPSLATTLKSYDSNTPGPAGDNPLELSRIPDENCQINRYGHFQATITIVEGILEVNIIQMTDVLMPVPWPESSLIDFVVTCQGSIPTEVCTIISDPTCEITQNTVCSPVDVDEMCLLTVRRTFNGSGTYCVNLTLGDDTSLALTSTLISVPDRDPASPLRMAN
# Method: SPR Carterra, Ab immobilized
pKd: −log10 of the molar value.
Cut-off 8 on pKd, inclusive. At or above means y; below means n.

Binder	Label
anti-GPNMB antibody GPN-22 (antibody, human IgG1, V domains shown, chimeric) VH: QVQLQQPGAERVKPGASVKMSCKASGYTFTSYWITWVKQRPGQGLEWIGDIFPGSGSTNYHEKFKSKATLTVDTSSSTAYMQLSSLTSEDSAVYYCSRGYFGSSFSDYWGQGTSVTVSS VL: DIQMTQSPSSLSASLGERVSLTCRTSQEISGYLSWLQQKPDGTIKRLIYSTSTLDSGVPKRFSGSRSGSDYSLTISSLESEDFADYYCLQYASSPPTFGSGTKLEIK	n
anti-GPNMB antibody GPN-48 (antibody, human IgG1, V domains shown, chimeric) VH: QVQLQQSGPELVKPGASVKLSCRASGYGFSSFWMNWVKQRPGKGLEWIGRIYPGKGDTLYNGKFKDKATLTADESSSTAYMQLSSLTSEDSAVYFCARSIYYYDYWYFDVWDTGTTVTVSS VL: DIVMTQSHKFMSTSVGDRVNITCKASQDVNSAIAWYQQKPGQSPKLLIYSASYRFIGVPDRFTGSGSGTGFTFTISSVQAEDLAVYYCQQHYTTPLTFGAGTKLELK	y
anti-GPNMB antibody GPN-65 (antibody, human IgG1, V domains shown, chimeric) VH: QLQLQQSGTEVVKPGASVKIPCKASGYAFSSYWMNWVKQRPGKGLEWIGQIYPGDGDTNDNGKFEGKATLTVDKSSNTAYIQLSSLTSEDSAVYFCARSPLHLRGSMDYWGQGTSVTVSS VL: SIVMTQTPKFLLVSAGDRVTITCKASQSVSNDVAWFQQKPGQSPELLIYSASNRYTGVPDRFTGSGYGTDFTFTISTVQAEDLAVYFCQQNYYSPFTFGGGTRLEIK	y
anti-GPNMB antibody GPN-06 (antibody, human IgG1, V domains shown, chimeric) VH: QVQLQQSGAELVKPGASVKLSCKASGYTFTNYYMYWVKQRPGQGLEWIGEINTRNGGTNFNEKFKSKATLTVDKSSSTAYMQLSSLTSEDSAVYYCTTGFAYWGQGTLVTVSA VL: DIQMTQSPASLSASVGETVTITCRASENIYSYLVWYQQNQGKSPQLLVYNAKTLAEGVPSRFSGSGSGTQFSLKINSLQPEDFGTYYCQHHYGTPFTFGSGTKLEIK	n
anti-GPNMB antibody GPN-41 (antibody, human IgG1, V domains shown, chimeric) VH: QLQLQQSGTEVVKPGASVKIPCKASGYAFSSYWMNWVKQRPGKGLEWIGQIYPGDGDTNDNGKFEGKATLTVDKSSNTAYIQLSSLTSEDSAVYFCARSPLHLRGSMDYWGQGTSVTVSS VL: SIVMTQTPKFLLVSAGDRVTITCKASQSVSNDVAWFQQKPGQSPELLIYSASNRYTGVPDRFTASGYGTDFTFTISAVQAEDLAVYFCQQNYYSPFTFGGGTRLEIK	y
anti-GPNMB antibody GPN-08 (antibody, human IgG1, V domains shown, chimeric) VH: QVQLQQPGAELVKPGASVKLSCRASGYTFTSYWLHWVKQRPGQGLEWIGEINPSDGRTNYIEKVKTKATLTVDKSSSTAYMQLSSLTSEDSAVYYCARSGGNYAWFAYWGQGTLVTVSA VL: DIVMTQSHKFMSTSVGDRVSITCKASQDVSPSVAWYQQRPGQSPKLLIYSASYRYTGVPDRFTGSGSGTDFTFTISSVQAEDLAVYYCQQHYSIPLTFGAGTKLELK	n
